experiment: total protein half-life in vivo (active degradation + dilution); higher = more stable protein; conditions: wild type E. coli NCM3722; growth: P-lim chemostat; doubling time 12 h
Measured total protein half-life in vivo accompanies every entry in the list below.
State the answer as a number, implicitly in h.

chain.sequence: MQRETVWLVEDEQGIADTLVYMLQQEGFAVEVFERGLPVLDKARKQVPDVMILDVGLPDISGFELCRQLLALHPALPVLFLTARSEEVDRLLGLEIGADDYVAKPFSPREVCARVRTLLRRVKKFSTPSPVIRIGHFELNEPAAQISWFDTPLALTRYEFLLLKTLLKSPGRVWSRQQLMDSVWEDAQDTYDRTVDTHIKTLRAKLRAINPDLSPINTHRGMGYSLRGL
total protein half-life in vivo / h: 7.89

Lab note: next sequence to report on.
Recorded total protein half-life in vivo for METFNSLFMVSPLLLGVLFFVAMLAGFIDSIAGGGGLLTIPALMAAGMSPANALATNKLQACGGSISATIYFIRRKVVSLSDQKLNIAMTFVGSMSGALLVQYVQADVLRQILPILVICIGLYFLLMPKLGEEDRQRRMYGLPFALIAGGCVGFYDGFFGPAAGSFYALAFVTLCGFNLAKATAHAKLLNATSNIGGLLLFILGGKVIWATGFVMLVGQFLGARMGSRLVLSKGQKLIRPMIVIVSAVMSAKLLYDSHGQEILHWLGMN [P0AD30] , please?
10

---

assay: total protein half-life in vivo (active degradation + dilution); higher = more stable protein; settings: E. coli NCM3722 delta-clpP delta-lon delta-hslV; growth: N-lim chemostat; doubling time 6 h
Returns one of true (1) or false (0); true (1) when total protein half-life in vivo is >= 6 h.

The examples below pair each entry with its known result.
chain.sequence: MANNTTGFTRIIKAAGYSWKGLRAAWINEAAFRQEGVAVLLAVVIACWLDVDAITRVLLISSVMLVMIVEILNSAIEAVVDRIGSEYHELSGRAKDMGSAAVLIAIIVAVITWCILLWSHFG [P0ABN1]
label.value: true (1)
--
chain.sequence: MKKKRPVLQDVADRVGVTKMTVSRFLRNPEQVSVALRGKIAAALDELGYIPNRAPDILSNATSRAIGVLLPSLTNQVFAEVLRGIESVTDAHGYQTMLAHYGYKPEMEQERLESMLSWNIDGLILTERTHTPRTLKMIEVAGIPVVELMDSKSPCLDIAVGFDNFEAARQMTTAIIARGHRHIAYLGARLDERTIIKQKGYEQAMLDAGLVPYSVMVEQSSSYSSGIELIRQARREYPQLDGVFCTNDDLAVGAAFECQRLGLKVPDDMAIAGFHGHDIGQVMEPRLASVLTPRERMGSIGAERLLARIRGESVTPKMLDLGFTLSPGGSI [P0ACP5]
label.value: true (1)
--
chain.sequence: MEYQHWLREAISQLQASESPRRDAEILLEHVTGRGRTFILAFGETQLTDEQCQQLDALLTRRRDGEPIAHLTGVREFWSLPLFVSPATLIPRPDTECLVEQALARLPEQPCRILDLGTGTGAIALALASERPDCEIIAVDRMPDAVSLAQRNAQHLAIKNIHILQSDWFSALAGQQFAMIVSNPPYIDEQDPHLQQGDVRFEPLTALVAADSGMADIVHIIEQSRNALVSGGFLLLEHGWQQGEAVRQAFILAGYHDVETCRDYGDNERVTLGRYYQ [P0ACC1]
label.value: false (0)
--
chain.sequence: MLYVIYAQDKADSLEKRLSVRPAHLARLQLLHDEGRLLTAGPMPAVDSNDPGAAGFTGSTVIAEFESLEAAQAWADADPYVAAGVYEHVSVKPFKKVF [P0AB55]
label.value: false (0)

Check if total protein half-life in vivo >= 6 h (inclusive). Item: `MILHPSLASANPLHYGRELTALDNLDFGSLHLDIEDSSFINNITFGMKTVQAVARQTPHPLSFHFMLARPQRWFNALAEIRPAWIFVHAETLDYPSETLTEIRHTGARAGLVFNPATPIDAWRYLASELDGVMVMTSEPDGQGQRFIPSMCEKIQKVRTAFPQTECWADGGITLAAAQQLAAAGAQHMVIGRALFSSSDYRATLAQFATL`
false (0)

---

experiment: total protein half-life in vivo (active degradation + dilution); higher = more stable protein; settings: wild type E. coli NCM3722; growth: N-lim chemostat; doubling time 6 h
test.readout: total protein half-life in vivo (h)
Answer with a number only, understood to be in h.

See these solved cases before continuing.
chain.sequence: MDLIYFLIDFILHIDVHLAELVAEYGVWVYAILFLILFCETGLVVTPFLPGDSLLFVAGALASLETNDLNVHMMVVLMLIAAIVGDAVNYTIGRLFGEKLFSNPNSKIFRRSYLDKTHQFYEKHGGKTIILARFVPIVRTFAPFVAGMGHMSYRHFAAYNVIGALLWVLLFTYAGYFFGTIPMVQDNLKLLIVGIIVVSILPGVIEIIRHKRAAARAAK [P0ABP6]
value.unit: h
total protein half-life in vivo: 3.7
//
chain.sequence: MPLSAQQLAAQKNLSYVLAEKLAQRILKGEYEPGTILPGEIELGEQFGVSRTAVREAVKTLTAKGMVLPRPRIGTRVMPQSNWNFLDQELLTWWMTEENFHQVIDHFLVMRICLEPQACLLAATVGTAEQKAHLNTLMAEMAALKENFRRERWIEVDMAWHEHIYEMSANPFLTSFASLFHSVYHTYFTSITSDTVIKLDLHQAIVDAIIQSDGDAAFKACQALLRSPDK
value.unit: h
total protein half-life in vivo: 3

Here's the next entry for you.
I have this sequence here, `MEYQLTLNWPDFLERHWQKRPVVLKRGFNNFIDPISPDELAGLAMESEVDSRLVSHQDGKWQVSHGPFESYDHLGETNWSLLVQAVNHWHEPTAALMRPFRELPDWRIDDLMISFSVPGGGVGPHLDQYDVFIIQGTGRRRWRVGEKLQMKQHCPHPDLLQVDPFEAIIDEELEPGDILYIPPGFPHEGYALENAMNYSVGFRAPNTRELISGFADYVLQRELGGNYYSDPDVPPRAHPADVLPQEMDKLREMMLELINQPEHFKQWFGEFISQSRHELDIAPPEPPYQPDEIYDALKQGEVLVRLGGLRVLRIGDDVYANGEKIDSPHRPALDALASNIALTAENFGDALEDPSFLAMLAALVNSGYWFFEG` , and I need its recorded total protein half-life in vivo.
4.6

---

Recorded measurements of total protein half-life in vivo, one per entry
experiment: total protein half-life in vivo (active degradation + dilution); higher = more stable protein; conditions: E. coli NCM3722 delta-lon; growth: N-lim chemostat; doubling time 6 h
Entry rule: numbers only, all in h.

chain.sequence: MKAFDLHRMAFDKVPFDFLGEVALRSLYTFVLVFLFLKMTGRRGVRQMSLFEVLIILTLGSAAGDVAFYDDVPMVPVLIVFITLALLYRLVMWLMAHSEKLEDLLEGKPVVIIEDGELAWSKLNNSNMTEFEFFMELRLRGVEQLGQVRLAILETNGQISVYFFEDDKVKPGLLILPSDCTQRYKVVPESADYACIRCSEIIHMKAGEKQLCPRCANPEWTKASRAKRVT
test.readout: total protein half-life in vivo
value.unit: h
numeric.value: 5.11

chain.sequence: MSKVCIIAWVYGRVQGVGFRYTTQYEAKRLGLTGYAKNLDDGSVEVVACGEEGQVEKLMQWLKSGGPRSARVERVLSEPHHPSGELTDFRIR [P0AB65]
test.readout: total protein half-life in vivo
value.unit: h
numeric.value: 5.89

chain.sequence: MQASQFSAQVLDWYDKYGRKTLPWQIDKTPYKVWLSEVMLQQTQVATVIPYFERFMARFPTVTDLANAPLDEVLHLWTGLGYYARARNLHKAAQQVATLHGGKFPETFEEVAALPGVGRSTAGAILSLSLGKHFPILDGNVKRVLARCYAVSGWPGKKEVENKLWSLSEQVTPAVGVERFNQAMMDLGAMICTRSKPKCSLCPLQNGCIAAANNSWALYPGKKPKQTLPERTGYFLLLQHEDEVLLAQRPPSGLWGGLYCFPQFADEESLRQWLAQRQIAADNLTQLTAFRHTFSHFHLDIVPMWLPVSSFTGCMDEGNALWYNLAQPPSVGLAAPVERLLQQLRTGAPV
test.readout: total protein half-life in vivo
value.unit: h
numeric.value: 3.65

chain.sequence: MKVKVLSLLVPALLVAGAANAAEVYNKDGNKLDLYGKVDGLHYFSDNKDVDGDQTYMRLGFKGETQVTDQLTGYGQWEYQIQGNSAENENNSWTRVAFAGLKFQDVGSFDYGRNYGVVYDVTSWTDVLPEFGGDTYGSDNFMQQRGNGFATYRNTDFFGLVDGLNFAVQYQGKNGNPSGEGFTSGVTNNGRDALRQNGDGVGGSITYDYEGFGIGGAISSSKRTDAQNTAAYIGNGDRAETYTGGLKYDANNIYLAAQYTQTYNATRVGSLGWANKAQNFEAVAQYQFDFGLRPSLAYLQSKGKNLGRGYDDEDILKYVDVGATYYFNKNMSTYVDYKINLLDDNQFTRDAGINTDNIVALGLVYQF
test.readout: total protein half-life in vivo
value.unit: h
numeric.value: 7.2

Name the reported total protein half-life in vivo value associated with the sequence MSQFFYIHPDNPQQRLINQAVEIVRKGGVIVYPTDSGYALGCKIEDKNAMERICRIRQLPDGHNFTLMCRDLSELSTYSFVDNVAFRLMKNNTPGNYTFILKGTKEVPRRLLQEKRKTIGMRVPSNPIAQALLEALGEPMLSTSLMLPGSEFTESDPEEIKDRLEKQVDLIIHGGYLGQKPTTVIDLTDDTPVVVREGVGDVKPFL [P0AFR4]
6.96

So what's the measured total protein half-life in vivo for this one? MTTQTVSGRRYFTKAWLMEQKSLIALLVLIAIVSTLSPNFFTINNLFNILQQTSVNAIMAVGMTLVILTSGIDLSVGSLLALTGAVAASIVGIEVNALVAVAAALALGAAIGAVTGVIVAKGRVQAFIATLVMMLLLRGVTMVYTNGSPVNTGFTENADLFGWFGIGRPLGVPTPVWIMGIVFLAAWYMLHHTRLGRYIYALGGNEAATRLSGINVNKIKIIVYSLCGLLASLAGIIEVARLSSAQPTAGTGYELDAIAAVVLGGTSLAGGKGRIVGTLIGALILGFLNNGLNLLGVSSYYQMIVKAVVILLAVLVDNKKQ [P0AGI1]
5.86
